measured_on: Carbonic anhydrase 2 (Homo sapiens)
assay_explanation: CAII small-molecule binders, profiling panel, biochemical, small-molecule microarray, Alexa647-labelled CAII (AID 1122)
assay_conditions: CAII-A647 binding fluorescence, higher = more signal
# cutoff 0.4 applies to composite z-score; >= gives t, < gives f

Consider the following illustrative entries.
compound	measured_on	class_assignment
C#CCN(CC1=CCCCC1)[C@H](c1ccccc1Br)[C@@H](O)Cc1ccccc1	Carbonic anhydrase 2 (Homo sapiens)	f
CN1C(=O)C2C=CC(C(O)C3CC=CCC3)N(NC(=O)OC(C)(C)C)C2C1=O (stereo not given)	Carbonic anhydrase 2 (Homo sapiens)	t

Input line: Kindly determine if composite z-score recorded for C=CCC(OC(C)=O)[C@@H]1[C@@H](N(Cc2cccc3ccccc23)C(=O)c2ccc(-c3ccccc3)cc2)c2cc(OCCCO)ccc2N1C(=O)Cc1ccc(OC)cc1 (stereo not given in full) is above or exactly 0.4.
Output line: f

Input line: Hi team, for COc1ccc([Si](C)(C)[C@@H]2[C@@H](CCO)O[C@]3(C(=O)N(Cc4ccc(N5C(=O)COc6ccccc65)cc4)c4ccccc43)[C@H]2C)cc1 , is the recorded composite z-score at or above 0.4?
Output line: t

Input line: Given the entry COCC(=C=CC[C@H](O)c1ccccc1OCCO)C[C@H](O)c1cc(Cl)cc(Cl)c1O , answer whether its composite z-score meets or surpasses 0.4.
Output line: f

Input line: For this compound, is measured composite z-score 0.4 or higher? COC(=O)[C@@]1(Cc2ccc(OC)cc2)[C@H]2c3cc(C(=O)N4CCCC4)n(Cc4ccccc4)c3C[C@H]2CN1C(=O)c1ccccc1
Output line: t

Input line: Is composite z-score at least 0.4? Consider O=C1C2C=CC(C(O)c3c(F)cccc3Cl)N(Nc3ccccc3)C2C(=O)N1c1ccccc1 (stereo not given)
Output line: f

Input line: Check the entry C=CCOC(=O)[C@H]1[C@@H]2C(=O)O[C@@H](c3ccccc3)[C@@H](c3ccccc3)N2[C@@H](c2ccc(OCCOC(=O)[C@H]3C[C@H]4C(=O)N5CCC[C@H]5C(=O)N4[C@H]3c3ccc(O)cc3)cc2)[C@]12C(=O)Nc1ccc(I)cc12 : does composite z-score equal or exceed 0.4?
Output line: f

Input line: Does CC(CO)N1C(=O)[C@@H]2C3C(=O)OCCC/C=C\[C@H]3OC23C=CCN(c2ccc4ccccc4c2)C(=O)[C@@H]13 (stereo not given in full) have a reported composite z-score of at least 0.4?
Output line: f

Input line: Hi team, for C[C@@H]1ON(c2cccc(C(=O)OC(C)(C)C)c2)[C@H](c2ccc(Br)cc2)[C@H]1C(=O)N1C(=O)OC[C@H]1Cc1ccccc1 , is the recorded composite z-score at or above 0.4?
Output line: f

Input line: Has CCOC(=O)C[C@H]1[C@H](OC(=O)Cc2ccc3c(c2)OCO3)[C@@H](NC(=O)c2ccc3ccccc3c2)c2cc(OCCCO)ccc2N1C(=O)c1ccccc1 a recorded composite z-score greater than or equal to 0.4?
Output line: f
